Numbers sourced from PubChem BioAssay.

Listing of recorded composite z-score by entry.
target: Pro-neuregulin-1, membrane-bound isoform (Homo sapiens) (UniProt Q02297); experiment: NRG1 binders on small-molecule microarrays, primary screen, psychiatric disease protein project, biochemical, small-molecule microarray, fluorescence 635/667 (AID 1075); details: NRG1 binding, 635 nm fluorescence, higher = more signal;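 also: score combines 667 nm spot fluorescence with signal to noise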
Sequence (Q02297 whole entry, looked up, canonical isoform): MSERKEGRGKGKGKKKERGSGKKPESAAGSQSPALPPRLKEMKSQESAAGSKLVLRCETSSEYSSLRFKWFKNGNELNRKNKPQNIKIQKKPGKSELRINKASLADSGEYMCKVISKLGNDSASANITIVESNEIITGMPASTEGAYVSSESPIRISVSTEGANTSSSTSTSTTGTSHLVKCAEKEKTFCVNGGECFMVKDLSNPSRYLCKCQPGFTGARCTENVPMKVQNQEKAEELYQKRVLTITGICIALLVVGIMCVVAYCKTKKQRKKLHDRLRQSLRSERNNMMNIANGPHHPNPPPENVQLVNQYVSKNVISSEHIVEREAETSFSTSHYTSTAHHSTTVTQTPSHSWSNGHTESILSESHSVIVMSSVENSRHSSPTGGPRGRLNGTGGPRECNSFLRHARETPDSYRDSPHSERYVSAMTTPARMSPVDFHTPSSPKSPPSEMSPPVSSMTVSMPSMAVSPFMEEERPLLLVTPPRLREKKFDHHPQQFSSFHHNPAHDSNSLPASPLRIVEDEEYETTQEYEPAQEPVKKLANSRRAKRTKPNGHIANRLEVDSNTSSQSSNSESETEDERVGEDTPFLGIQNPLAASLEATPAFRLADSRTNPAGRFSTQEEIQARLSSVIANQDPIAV

{"molecule": "O=C(NN=C1C[C@@H](O)[C@@H](O)[C@@H]2[C@@H]3C(=O)N(c4cccc(Oc5ccccc5)c4)C(=O)[C@@H]3CC[C@@H]12)OCc1ccccc1", "composite z-score": 0.259}
{"molecule": "CCOC(=O)[C@H](Cc1ccccc1)NC(=O)CCC1CC(OC(=O)NCc2ccc3c(c2)OCO3)CC2(CCCC(COC(=O)NCC(c3ccccc3)c3ccccc3)O2)O1 (stereo partly specified)", "composite z-score": 0.716}
{"molecule": "COc1cccc([C@H]2Oc3ccc(OC)cc3C(=NO[C@H](C)c3cn([C@@H]4COC[C@H]4O)nn3)[C@@H]2O)c1", "composite z-score": 0.0671}
{"molecule": "CCOC(=O)[C@H](Cc1ccccc1)NC(=O)CCC1CC(OC(=O)NCc2ccc3c(c2)OCO3)CC2(CCCC(COC(=O)NCC3CCCCC3)O2)O1 (stereo partly specified)", "composite z-score": 0.306}
{"molecule": "Cc1ccc(S[C@]2(C(=O)O)CC(=O)N(Cc3ccccc3)[C@@H]2c2ccc(CO)cc2I)cc1", "composite z-score": 1.8}
{"molecule": "COc1cccc([C@@H]2Oc3ccc(Br)cc3C(=O)[C@H]2O)c1", "composite z-score": 0.297}
{"molecule": "COC(=O)CC=C[C@H](C)[C@@H](OCc1ccccc1Br)C(C)C", "composite z-score": -0.252}
{"molecule": "CCOC(=O)[C@H](Cc1ccccc1)NC(=O)CCC1CC(OC(=O)NCCc2ccc(F)cc2)CC2(CCCC(COC(=O)NCC(c3ccccc3)c3ccccc3)O2)O1 (stereo partly specified)", "composite z-score": 0.852}
{"molecule": "CC(C)=NOCc1cccc(-c2cc(-c3ccccc3)no2)c1", "composite z-score": 0.205}
{"molecule": "O=C1[C@H]2[C@H]3[C@H](O)[C@H](O)CC(=NO[C@@H]4O[C@H](CO)[C@@H](O)[C@H](O)[C@H]4O)[C@H]3CC[C@H]2C(=O)N1C1CCCCC1", "composite z-score": -0.197}
{"molecule": "COCCCNC(=O)[C@@]1(CCS(=O)(=O)c2ccccc2)N=C(c2ccc(OCCCO)cc2)O[C@H]1c1ccccc1", "composite z-score": 1.25}
{"molecule": "CC1(C)OCC(C(O)C2=CCCCC2=O)CO1 (stereo unspecified)", "composite z-score": 0.366}
{"molecule": "O=C1O[C@@H](c2ccccc2)[C@@H](c2ccccc2)N2[C@@H](c3ccccc3OCCO)[C@]3(C(=O)Nc4ccc(C#CCCO)cc43)[C@@H](C(=O)O)[C@H]12", "composite z-score": 1.84}
{"molecule": "Cc1cc(C)c(-c2cc([C@H](C)ON=C3[C@H]4CCn5c(=O)n(-c6ccccc6)c(=O)n5[C@H]4[C@H](O)[C@@H]4O[C@H]34)on2)c(C)c1", "composite z-score": 0.463}
{"molecule": "NCCCCCNC(=O)[C@@H]1C[C@@H]2C(=O)N3CCC[C@H]3C(=O)N2[C@@H]1c1cccc(OCCO)c1", "composite z-score": 1.86}
{"molecule": "CO[C@H]([C@@H](C)[C@H](OC)c1ccccc1)[C@H](C)[C@@H](OC)[C@H](C)C(C)=O", "composite z-score": -0.383}
